Answer each item with its documented recombinant UMI read abundance (log10).
assay: recombinant UMI read abundance after kanamycin selection (control-corrected) (log10(CPM+1)); higher = more efficient recombination; extreme values may be limits of the assay; sequences stand for … in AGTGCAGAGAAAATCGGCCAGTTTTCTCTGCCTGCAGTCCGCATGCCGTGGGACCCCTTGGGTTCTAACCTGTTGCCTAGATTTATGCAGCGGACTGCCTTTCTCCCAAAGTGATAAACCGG…AGGTTGGTTTCACT; site = the 11-nt donor;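 note: IS621 bridge recombinase in Escherichia coli cells against a fixed T5 target plasmid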
Numbers only.

Please review the following examples before continuing.
* ATCCGATCATGGACCGGTTTTCCCGGTAATCCGTATTTGGT (site ATCCGATCTAC) | 0.721
* GTCAGACCATGGACCGGTTTTCCCGGTAATCCGTATTTGGT (site GTCAGACCTAC) | 0
* CGCTAGGCATGGACCGGTTTTCCCGGTAATCCGTATTTGAC (site CGCTAGGCTGT) | 1.08
* CCAGGATCATGGACCGGTTTTCCCGGTAATCCGTATTTGCA (site CCAGGATCTTG) | 0.424

I would be grateful if you could provide recombinant UMI read abundance (log10) for each of the following entries.
1. TAGCTAGCATGGACCGGTTTTCCCGGTAATCCGTATTTGAA (site TAGCCAGCTTT)
2. GTTGTCGCATGGACCGGTTTTCCCGGTAATCCGTATTTGCG (site GTAGTCGCTCG)
3. GGGGCACCATGGACCGGTTTTCCCGGTAATCCGTATTTGCC (site GGGGCACCTAG)
4. GGTACGTCATGGACCGGTTTTCCCGGTAATCCGTATTTGTT (site GGTACGACTAA)
5. GTTTGCCCATGGACCGGTTTTCCCGGTAATCCGTATTTGAT (site GTTTGCCCTAT)

[0.0109, 0.0153, 0.0374, 0.0066, 0.0181]
